Recorded measurements of Ki, one per entry
# Tested target: recombinant human ALK5 (TGF-βR1) protein (Homo sapiens, UniProt P36897)
# Sequence (P36897 34-503): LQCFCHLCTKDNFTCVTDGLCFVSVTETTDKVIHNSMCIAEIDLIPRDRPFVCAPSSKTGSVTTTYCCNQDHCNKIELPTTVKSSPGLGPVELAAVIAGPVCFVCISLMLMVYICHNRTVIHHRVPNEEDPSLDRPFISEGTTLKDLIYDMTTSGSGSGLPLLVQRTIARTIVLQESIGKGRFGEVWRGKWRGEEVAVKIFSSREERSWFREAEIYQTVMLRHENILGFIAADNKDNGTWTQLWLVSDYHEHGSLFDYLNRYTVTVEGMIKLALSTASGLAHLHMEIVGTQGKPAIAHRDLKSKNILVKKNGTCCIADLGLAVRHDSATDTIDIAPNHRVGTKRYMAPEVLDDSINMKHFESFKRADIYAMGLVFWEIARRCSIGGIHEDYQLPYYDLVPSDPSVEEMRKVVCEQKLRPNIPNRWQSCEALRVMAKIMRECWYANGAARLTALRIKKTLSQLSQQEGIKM
# Assay explanation: Biochemical ALK5 (TGF-βR1) assay to measure pKi (LANCE Ultra ULight kinase assay)
# Condition description: apparent pKi, converted from pIC50 by Cheng-Prusoff

1. Cc1cccc(-c2nccc(Nc3ccnc(Nc4ccc(CN)cc4)n3)n2)n1 [Compound 187]; 0.0398 to 0.316 nM
2. Cc1cccc(-c2nccc(Nc3ccnc(Nc4csc(C(=O)OC[C@H]5CC[C@@H](N)CC5)c4)n3)n2)n1 [Compound 563]; 0.0398 to 0.316 nM
3. Cc1cccc(-c2nccc(Nc3ccnc(Nc4csc(C(=O)O)c4)n3)n2)n1 [Compound 386]; 0.398 to 3.16 nM
4. Cc1cccc(-c2nccc(Nc3ccnc(Nc4ccc(CN5CCC(O)CC5)cc4)n3)n2)n1 [Compound 405]; ≤ 0.0316 nM
5. Cc1cccc(-c2nccc(Nc3ccnc(Nc4ccc(CN5CCC(C(=O)O)CC5)cc4)n3)n2)n1 [Compound 484]; 0.0398 to 0.316 nM
6. Cc1cccc(-c2nccc(Nc3ccnc(Nc4ccc(CN5CCN(CCO)CC5)cc4)n3)n2)n1 [Compound 301]; 0.0398 to 0.316 nM

Q: Reported Ki for recombinant human ALK5 (TGF-βR1) protein (Homo sapiens, UniProt P36897), given Cc1cccc(-c2nccc(Nc3ccnc(Nc4ccc(CN5CCC(C(=O)O[C@H]6CCN(C)C6)C5)cc4)n3)n2)n1 (some centres unmarked) [Compound 161] ?
A: 0.0398 to 0.316 nM

Q: For Cc1cccc(-c2nccc(Nc3ccnc(Nc4cc(C(=O)O)cs4)n3)n2)n1 [Compound 532] then?
A: 0.398 to 3.16 nM

###

# System: TGF-β-stimulated SMAD3 phosphorylation in BEAS-2B cells
# Assay explanation: Cellular ALK5 potency assay, inhibition of TGF-β stimulated pSMAD3 formation in BEAS-2B cells
# Type: cell-based
# Condition description: Homo sapiens, pSMAD3, TGF-β 10 ng/mL, read-out: BEAS2B pIC50 (converted)
Known IC50 of a selection of compounds

1) Cc1cccc(-c2nccc(Nc3ccnc(Nc4ccc(-c5cnn(C(C)C)c5)cc4)n3)n2)n1; 25.1 to 158 nM
2) CC(=O)N1CC(COC(=O)c2cc(Nc3nccc(Nc4ccnc(-c5cccc(C)n5)n4)n3)cs2)C1; 25.1 to 158 nM
3) Cc1cccc(-c2nccc(Nc3ccnc(Nc4ccc(N5CCCC(C(=O)OC6CCNC6)C5)cc4)n3)n2)n1 (stereo not shown); 200 to 1260 nM

Q: So what does the record say about IC50 for Cc1cccc(-c2nccc(Nc3ccnc(Nc4csc(C(=O)O[C@H]5C[C@@H](N)C5)c4)n3)n2)n1 ?
A: 25.1 to 158 nM

Q: Same for Cc1cccc(-c2nccc(Nc3ccnc(Nc4cccc(NC(=O)NC5CCNC5)c4)n3)n2)n1 (stereo not shown)
A: 25.1 to 158 nM

Q: Note, next up: Cc1cccc(-c2nccc(Nc3ccnc(Nc4cccc(NC(=O)C5(O)CCNC5)c4)n3)n2)n1 (stereo not shown)
A: ≤ 20 nM

Q: Try this compound too: Cc1cccc(-c2nccc(Nc3ccnc(Nc4ccc(N5CCC(N)CC5)cc4)n3)n2)n1
A: 25.1 to 158 nM

Q: Another compound to look at: Cc1cccc(-c2nccc(Nc3ccnc(Nc4cccc(C(=O)N5CCN(C)CC5)c4)n3)n2)n1
A: 25.1 to 158 nM

Q: Try this compound too: Cc1cccc(-c2nccc(Nc3ccnc(Nc4ccc(N)c(C)c4)n3)n2)n1
A: ≤ 20 nM

Q: Cool, now Cc1cccc(-c2nccc(Nc3ccnc(Nc4ccc(CN5C[C@H](C)NC[C@H]5C)cc4)n3)n2)n1
A: 25.1 to 158 nM

Q: Now the same for Cc1cccc(-c2nccc(Nc3ccnc(Nc4ccc(CN5C6CCC5CNC6)cc4)n3)n2)n1
A: 25.1 to 158 nM

Q: Queued: Cc1cccc(-c2nccc(Nc3ccnc(Nc4ccc(N5CCOCC5)cc4O)n3)n2)n1
A: 25.1 to 158 nM

Q: What about Cc1cccc(-c2nccc(Nc3ccnc(Nc4ccc(N5CCN(C6CC6)CC5)cc4)n3)n2)n1 ?
A: 25.1 to 158 nM

Q: Same lookup for Cc1cccc(-c2nccc(Nc3ccnc(Nc4cccc(C(=O)N5CCN(C(C)C)CC5)c4)n3)n2)n1 , please.
A: 25.1 to 158 nM

Q: Also need Cc1cccc(-c2nccc(Nc3ccnc(Nc4cncc(C(=O)OC[C@H]5CCCN5)c4)n3)n2)n1 , thanks.
A: 25.1 to 158 nM

Q: Also check Cc1cccc(-c2nccc(Nc3ccnc(Nc4cccc(C(=O)O[C@H]5CCNC5)c4)n3)n2)n1
A: 25.1 to 158 nM

Q: Please answer likewise for Cc1cccc(-c2nccc(Nc3ccnc(Nc4ccc(-c5cnn(C)c5)cc4)n3)n2)n1
A: 25.1 to 158 nM

###

# Tested on: TGF-β-stimulated SMAD3 phosphorylation in BEAS-2B cells
# Assay explanation: Cellular ALK5 potency assay, inhibition of TGF-β stimulated pSMAD3 formation in BEAS-2B cells
# Format: cell-based
# Condition description: Homo sapiens, pSMAD3, TGF-β 10 ng/mL, read-out: BEAS2B pIC50 (converted)
Quick reference: IC50 of the listed items.

1. Cc1cccc(-c2nccc(Nc3ccnc(Nc4ccc(NC[C@@H]5CCCN5)cc4)n3)n2)n1 [Compound 342]; 25.1 to 158 nM
2. Cc1cccc(-c2nccc(Nc3ccnc(Nc4nc(C(=O)NCC5(CO)CNC5)cs4)n3)n2)n1 [Compound 140]; 25.1 to 158 nM
3. Cc1cccc(-c2nccc(Nc3ccnc(Nc4cncc(C(=O)OCC5CCNCC5)c4)n3)n2)n1 [Compound 606]; 25.1 to 158 nM
4. Cc1cccc(-c2nccc(Nc3ccnc(Nc4ccc(N5CCC(C(=O)OC6CCN(C)C6)CC5)cc4)n3)n2)n1 (stereo not drawn) [Compound 472]; 25.1 to 158 nM
5. Cc1cccc(-c2nccc(Nc3ccnc(Nc4ccc(C(=O)O[C@@H]5CCNC5)nc4)n3)n2)n1 [Compound 546]; 25.1 to 158 nM
6. CCNC(=O)Cc1cc(Nc2ccnc(Nc3ccc(N4CCNCC4)cc3)n2)nc(-c2cccc(C)n2)n1 [Compound 1006]; 200 to 1260 nM
7. Cc1cccc(-c2nccc(Nc3ccnc(Nc4cc(C(=O)N5CCNCC5)cs4)n3)n2)n1 [Compound 389]; 25.1 to 158 nM
8. Cc1cccc(-c2nccc(Nc3ccnc(Nc4csc(C(=O)O[C@H]5C[C@H](N)C5)c4)n3)n2)n1 [Compound 638]; 25.1 to 158 nM

Q: Can you look up IC50 on TGF-β-stimulated SMAD3 phosphorylation in BEAS-2B cells for Fc1ccc(Cl)cc1-c1nccc(Nc2ccnc(Nc3ccc(N4CCC(N5CCCC5)CC4)cc3)n2)n1 [Compound 412] ?
A: 25.1 to 158 nM

Q: Now the same for Cc1cccc(-c2nccc(Nc3ccnc(Nc4ccc(N5CCNCC5)c(CC(=O)OCC(C)C)c4)n3)n2)n1 [Compound 205]
A: 25.1 to 158 nM

Q: Same lookup for COC(=O)C1CCN(Cc2ccc(Nc3nccc(Nc4ccnc(-c5cccc(C)n5)n4)n3)cc2)CC1 [Compound 28] , please.
A: ≤ 20 nM

Q: Then what about the compound Cc1cccc(-c2nccc(Nc3ccnc(Nc4cnn(CC5CNC5)c4)n3)n2)n1 [Compound 181] ?
A: 200 to 1260 nM

Q: Please answer likewise for Cc1cccc(-c2nccc(Nc3ccnc(Nc4csc(C(=O)OCCN5CC[C@@H](N)C5)c4)n3)n2)n1 [Compound 568]
A: 25.1 to 158 nM

Q: Field entry: Cc1cccc(-c2nccc(Nc3ccnc(Nc4ccc(CN5CCNC(C)(C)C5)cc4)n3)n2)n1 [Compound 249]
A: 25.1 to 158 nM

Q: // query: Cc1cccc(-c2nccc(Nc3ccnc(Nc4cc(C(=O)OCC5CNC5)ccn4)n3)n2)n1 [Compound 608]
A: 200 to 1260 nM

###

# Tested on: TGF-β-stimulated SMAD3 phosphorylation in BEAS-2B cells
# Assay explanation: Cellular ALK5 potency assay, inhibition of TGF-β stimulated pSMAD3 formation in BEAS-2B cells
# Type: cell-based
# Condition description: Homo sapiens, pSMAD3, TGF-β 10 ng/mL, read-out: BEAS2B pIC50 (converted)
Reported metric: IC50

1. Cc1cccc(-c2nccc(Nc3ccnc(Nc4csc(C(=O)O)c4)n3)n2)n1; 1580 to 10000 nM
2. Cc1cccc(-c2nccc(Nc3ccnc(Nc4ccc(N5C6CCC5CNC6)cc4)n3)n2)n1; 25.1 to 158 nM
3. Cc1cccc(-c2nccc(Nc3ccnc(Nc4ccc(COCCO)cc4)n3)n2)n1; 25.1 to 158 nM
4. Cc1cccc(-c2nccc(Nc3ccnc(Nc4ccc(N5CCC(C(=O)OC6CNC6)CC5)cc4)n3)n2)n1; 25.1 to 158 nM
5. Cc1cccc(-c2nc(Nc3ccnc(Nc4ccc(N5CCOCC5)cc4)n3)ccc2C#N)n1; 200 to 1260 nM

Q: Tell me the measured IC50 of Cc1cccc(-c2nccc(Nc3ccnc(Nc4cccc(CN5CCOCC5)c4)n3)n2)n1 , please.
A: 25.1 to 158 nM

Q: Same lookup for Cc1cccc(-c2nccc(Nc3ccnc(Nc4ncc(C(=O)OC[C@H]5CCCCN5)s4)n3)n2)n1 , please.
A: 200 to 1260 nM

Q: Try Cc1cccc(-c2nccc(Nc3ccnc(Nc4ncc(C(=O)OCC5CNC5)s4)n3)n2)n1 next.
A: 200 to 1260 nM
